Test system: MCF7
Assay: Cytotoxicity against human MCF7 cells assessed as cellular growth at 10 uM by SRB assay
Type: functional
Listed here are compounds together with their documented Activity.
The answer is to be given in %; state only the numeric part.

O=C(Nc1nc2ccc(Cl)cc2s1)c1ccc(Cl)cc1 | 99.61
O=C(Nc1ccc2oc(=O)ccc2c1)c1ccc(-c2ccc(Br)cc2)o1 | 98.67
Cc1ccc(C(=O)/C=C2/Nc3ccc(C)cc3OC2=O)cc1 | 96.32
Nc1c(C(=O)NCc2ccccc2)sc2nc3c(cc12)C(=O)CCC3 | 110.54
O=C(NCCc1ccc(Cl)cc1)c1[nH]c2ccccc2c1Cl | 78.35

Please give the documented Activity of `Cc1cc(C)c(NC(=O)c2sc3nc4c(cc3c2N)C(=O)CC(C)(C)C4)c(C)c1`
99.03

Identify Activity associated with the compound `CC1(C)CCc2cc(-c3ccn(S(=O)(=O)c4cccc(C(F)(F)F)c4)n3)ccc2O1`
87.68

Item `Clc1ccc(-c2nc(-c3cccs3)no2)c(Cl)c1` : provide Activity
29.22
